Measured glycan array binding signal (z-score), listed per entry.
target: Man(a1-3)[Man(a1-6)]Man(b1-4)GlcNAc(b1-4)[Fuc(a1-6)]GlcNAc; assay: glycan array binding signal (z-score within array); higher = stronger binding; conditions: glycan notation: IUPAC condensed, linker removed
This is one part of a sample in which the strongest signals are shown more often than they occur.
QUANTITY: glycan array binding signal (z-score)

>>> result_value("GSL-I (Griffonia simplicifolia) (protein) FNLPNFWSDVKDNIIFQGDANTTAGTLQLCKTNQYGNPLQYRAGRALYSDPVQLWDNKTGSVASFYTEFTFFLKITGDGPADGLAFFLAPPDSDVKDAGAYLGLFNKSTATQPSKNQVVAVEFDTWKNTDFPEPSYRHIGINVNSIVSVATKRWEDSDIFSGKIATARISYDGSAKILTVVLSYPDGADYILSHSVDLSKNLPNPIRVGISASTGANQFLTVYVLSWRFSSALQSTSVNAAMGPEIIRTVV")
-0.305
>>> result_value("BTL (Bryothamnion triquetrum) (protein) ADPICGSSGYSCTTPAILTPKSPGSFPSGYSKVIVTGVGGSYSVYIHRPDGFKVYKASEGGCASFGSYSGGGNSEVGKYGSGGTVVAVACK")
4.2
>>> result_value("Arath Fbox (Arabidopsis thaliana), NP_178341.1 (protein) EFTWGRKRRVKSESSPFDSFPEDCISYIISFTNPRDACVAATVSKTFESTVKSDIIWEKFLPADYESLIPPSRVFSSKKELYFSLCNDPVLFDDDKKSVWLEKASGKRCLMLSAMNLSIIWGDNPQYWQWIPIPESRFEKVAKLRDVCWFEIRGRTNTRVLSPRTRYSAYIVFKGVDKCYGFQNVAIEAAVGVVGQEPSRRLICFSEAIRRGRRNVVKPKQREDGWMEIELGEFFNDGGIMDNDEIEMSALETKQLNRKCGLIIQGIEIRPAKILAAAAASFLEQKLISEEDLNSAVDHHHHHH")
-0.72
>>> result_value("RVL (Remusatia vivipara), B5LYJ9 (protein) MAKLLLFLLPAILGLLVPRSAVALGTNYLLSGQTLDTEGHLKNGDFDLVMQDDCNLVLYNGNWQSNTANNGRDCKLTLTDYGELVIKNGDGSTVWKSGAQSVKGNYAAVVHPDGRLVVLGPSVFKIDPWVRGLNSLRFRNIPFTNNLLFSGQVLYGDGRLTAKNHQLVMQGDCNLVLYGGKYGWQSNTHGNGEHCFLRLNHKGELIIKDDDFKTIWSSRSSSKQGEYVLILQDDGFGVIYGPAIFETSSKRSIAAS")
6.15
>>> result_value("Gal 8 (Homo sapiens) (protein) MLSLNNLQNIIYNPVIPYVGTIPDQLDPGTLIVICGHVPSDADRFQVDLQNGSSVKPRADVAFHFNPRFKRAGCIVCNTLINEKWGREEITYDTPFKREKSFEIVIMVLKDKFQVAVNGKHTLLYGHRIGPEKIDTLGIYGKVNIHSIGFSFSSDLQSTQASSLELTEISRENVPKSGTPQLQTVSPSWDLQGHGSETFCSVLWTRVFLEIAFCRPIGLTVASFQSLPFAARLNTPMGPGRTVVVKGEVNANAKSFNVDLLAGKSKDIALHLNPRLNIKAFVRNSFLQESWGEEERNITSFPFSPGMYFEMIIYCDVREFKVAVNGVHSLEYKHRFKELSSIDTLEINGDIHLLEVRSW")
-0.357
